Parameter A35 (-): see the listing below.
Assay: 35°C color optical density (A35): absorbancy difference ε(240)-ε(0) after 240 s light irradiation at 35°C
Type: physicochemical
Details: photochromic laminate by coating method, 240 s irradiation
endpointName: A35 (-)

1) CCCC1(CCC)c2ccccc2-c2c1c1c(c3cc(OC)c(N(C)c4ccccc4)cc23)OC(c2ccc(OC)cc2)(c2ccc(OC)cc2)C=C1; 0.74 -
2) COc1ccc(C2(c3ccc(N4CCOCC4)cc3)C=Cc3c4c(c5cc(N6CCCc7ccccc76)c(OC)cc5c3O2)-c2ccc(C)cc2C4(CCCC(F)(F)F)CCCC(F)(F)F)cc1 (centres unmarked); 0.75 -
3) CCCCC1(CCCC)c2cc([Si](C)(C)C(C)(C)C)ccc2-c2c1c1c(c3cc(OC)c(N(CC)c4ccccc4)cc23)OC(c2ccc(OC)cc2)(c2ccc(OCCC)cc2)C=C1 (centres unmarked); 0.90 -
4) CCCCCCOc1ccc(C2(c3ccc(OC)cc3)C=Cc3c4c(c5cc(N(c6ccc(C)cc6)c6ccc(OC)cc6)c(OC)cc5c3O2)-c2ccccc2C42CC(C)(C)CC(C)(C)C2)cc1 (centres unmarked); 0.74 -
5) COc1ccc(C2(c3ccc(OC)cc3)C=Cc3c4c(c5cc(N6CCOc7ccccc76)c(OC)cc5c3O2)-c2ccccc2C4(C)C)cc1; 0.90 -

---

Assay: Residual rate (A90/A0×100) after 90 h accelerated deterioration in xenon weather meter X25, color developing durability
Assay type: physicochemical
Settings: photochromic laminate by coating method; xenon weather meter 90 hours
Parameter Residual rate (%): see the listing below.
endpointName: Residual rate (%)

1. CCCCN(c1ccc(F)cc1)c1cc2c3c(c4c(c2cc1OC)OC(c1ccc(OC)cc1)(c1ccc(OC)cc1)C=C4)C(CCCCOC)(CCCCOC)c1ccccc1-3 [Example 16 Formula (77)]; 80
2. CCCC1(CCC)c2ccccc2-c2c1c1c(c3cc(OC)c(N(c4ccccc4)c4ccccc4)cc23)OC(c2ccc(C)cc2)(c2ccc(N(C)c3ccccc3)cc2)C=C1 (stereo not drawn) [Example 22 Formula (89)]; 76
3. CCCCC1(CCCC)c2ccccc2-c2c1c1c(c3cc(OC)c(N(c4ccc(F)cc4)c4ccc(F)cc4)cc23)OC(c2ccc(OC)cc2)(c2ccc(OC)cc2)C=C1 [Example 12 Formula (66)]; 81

---

Assay: 23°C color optical density (A23): absorbancy difference ε(240)-ε(0) after 240 s light irradiation at 23°C
Format: physicochemical
Details: binder sheet (binder method), 240 s irradiation
endpointName: A23 (-)

1. COc1ccc(C2(c3ccc(OC)cc3)C=Cc3c4c(c5cc(N(c6ccccc6)c6ccccc6)c(OC)cc5c3O2)-c2ccccc2C4(C)C)cc1; 1.52 -
2. CCCC1(CCC)c2ccccc2-c2c1c1c(c3cc(OC)c(N(c4ccccc4)c4ccc(C)cc4)cc23)OC(c2ccc(OC)cc2)(c2ccc(OC)cc2)C=C1; 1.6
3. COc1ccc(C2(c3ccc(OC)cc3)C=Cc3c4c(c5cc(N6CCc7ccccc7C6)c(OC)cc5c3O2)-c2ccccc2C4(C)C)cc1 [Formula (F), reference compound]; 1.85 -

---

Test: Maximum absorption wavelength (λmax) after color development, spectrophotometer MCPD3000
Assay type: physicochemical
Details: photochromic laminate prepared by coating method; after color development
Parameter Maximum absorption wavelength: see the listing below.
endpointName: Maximum absorption wavelength (nm)

1. COCCCC1(CCCOC)c2ccccc2-c2c1c1c(c3cc(OC)c(N4CC(C)c5ccccc54)cc23)OC(c2ccc(OC)cc2)(c2ccc(OC)cc2)C=C1 (stereo not drawn) [Formula (39A)]; 533
2. CCCc1ccc(C2(c3ccc(OC)cc3)C=Cc3c4c(c5cc(N6CCc7ccccc76)c(OC)cc5c3O2)-c2ccc(-c3ccc(C(F)(F)F)cc3)cc2C4(CCOC)CCOC)cc1 (stereo not drawn) [Formula (85A)]; 530
3. COc1ccc(C2(c3ccc(OC)c(OC)c3)C=Cc3c4c(c5cc(N6CCc7ccccc76)c(OC)cc5c3O2)-c2ccccc2C4(CCC(F)(F)F)CCC(F)(F)F)cc1 (stereo not drawn) [Formula (67A)]; 527
4. CCC1(CC)c2cc(C)ccc2-c2c1c1c(c3cc(C)c(N4CCc5ccccc54)cc23)OC(c2ccc(C)cc2)(c2ccc(OC)cc2)C=C1 (stereo not drawn) [Formula (42A)]; 535
5. COc1ccc(C2(c3ccc(OC)cc3)C=Cc3c4c(c5cc(N6CCc7ccccc76)c(-c6ccc(OC)cc6OC)cc5c3O2)-c2ccccc2C4(C)C)cc1 [Formula (I), reference compound]; 522
6. CCCOc1ccc(C2(c3ccc(OC)cc3)C=Cc3c4c(c5cc(N6CCc7ccccc76)c(C)cc5c3O2)-c2ccc(-c3ccc(F)c(F)c3F)cc2C4(CCCCOC)CCCCOC)cc1F (stereo not drawn) [Formula (78A)]; 524

// data source = patent EP4692071A1
